The reported measurements were obtained from the supplement of paper PMC12297408.

Tested on: Plasmodium falciparum NF54/iGP1_RE9H ulg8 stage V gametocytes
Test: gametocyte viability (luciferase signal relative to DMSO control) (% of DMSO control); higher = less gametocytocidal activity, active = 50 or less
Conditions: concentration: 1 µM; exposure time: 72 h
Counter-ions that a name gives are not always drawn.

{"COMPOUND": "COc1cccc2c1c(O)c(C(=O)N(C)c1ccc(C(F)(F)F)cc1)c(=O)n2C", "gametocyte viability": 83.1}
{"COMPOUND": "C#CCC(CCCCCC)C(=O)O (stereo not given)", "gametocyte viability": 89.2}
{"COMPOUND": "COc1cc2nc(N3CCCC3)nc(NCCCCCN3CCCC3)c2cc1OC", "gametocyte viability": 92.2}
{"COMPOUND": "Oc1cc(O)cc(/C=C/c2ccc(Br)cc2)c1", "gametocyte viability": 51.7}
{"COMPOUND": "CC(C)C(=O)SCCCCCCC(=O)Nc1nc(-c2ccccc2)cs1", "gametocyte viability": 82.8}
{"COMPOUND": "CCCCCOc1ccc(/C=C\\c2cccc(O)c2C(=O)O)cc1", "gametocyte viability": 87.3}
{"COMPOUND": "CC(NC(=O)c1ccccc1/N=C/c1c(O)ccc2ccccc12)c1ccccc1 (stereo not given)", "gametocyte viability": 102}
{"COMPOUND": "CC(=O)OCC1OC(n2cnc(N)nc2=O)C(OC(C)=O)C1OC(C)=O (stereo not given)", "gametocyte viability": 87.3}
{"COMPOUND": "CNCCN1CCC(OCc2ccccc2)CC1 [MS049 (hydrochloride)]", "gametocyte viability": 84.2}
{"COMPOUND": "CC(=O)SCC(=O)c1ccc(NS(=O)(=O)c2ccc(OCCCN(C)C)cc2)nc1", "gametocyte viability": 83.8}
{"COMPOUND": "O=C(O)CCCc1ccccc1 [Sodium 4-Phenylbutyrate]", "gametocyte viability": 90.4}
{"COMPOUND": "CN(C)c1ccc(C(=O)NCCCCCC(=O)NO)cc1", "gametocyte viability": 76.2}
{"COMPOUND": "CN(C)Cc1ccc(S(=O)(=O)n2ccc(/C=C/C(=O)NO)c2)cc1 [Resminostat (hydrochloride)]", "gametocyte viability": 94.8}
{"COMPOUND": "CCC(=O)N1CCOc2c(cc(-c3ccc(OC)c(OC)c3)cc2OC[C@H]2CCCN(C)C2)C1 [I-CBP112 (hydrochloride)]", "gametocyte viability": 84.5}
{"COMPOUND": "Cn1cc(C(=O)Nc2ccc3c(c2)OCCO3)c2ccccc2c1=O", "gametocyte viability": 82.7}
{"COMPOUND": "CC(C)(C)c1ccc(C(=O)NC(=S)Nc2ccc(N)cc2)cc1", "gametocyte viability": 92.2}
{"COMPOUND": "CN(C)CCCNC(=O)c1ccc(-c2cc(O)c3ncccc3c2)cc1", "gametocyte viability": 85.2}
{"COMPOUND": "COc1ccc(CCc2nc3cc(-c4c(C)noc4C)ccc3n2C[C@H](C)N2CCOCC2)cc1Cl", "gametocyte viability": 78.4}
{"COMPOUND": "Nc1ncn([C@H]2C[C@H](O)[C@@H](CO)O2)c(=O)n1", "gametocyte viability": 90.6}
{"COMPOUND": "Clc1cc2c(NC3CCCC3)nnc(-c3ccncc3)c2cc1Cl", "gametocyte viability": 83.9}

* * *

System: Plasmodium falciparum NF54/iGP1_RE9H ulg8 stage V gametocytes
Test: gametocyte viability (luciferase signal relative to DMSO control) (% of DMSO control); higher = less gametocytocidal activity, active = 50 or less
Settings: concentration: 10 µM; exposure time: 72 h
gametocyte viability values, listed per item

{"COMPOUND": "N#C/C(=C\\c1cc(Cl)cc(Cl)c1)c1cccnc1", "gametocyte viability": 101}
{"COMPOUND": "COc1cc2nccc(Oc3ccc(NC(=O)Nc4cc(C)on4)c(Cl)c3)c2cc1OC", "gametocyte viability": 99.8}
{"COMPOUND": "O=C(O)c1cc(NCc2cc(O)ccc2O)ccc1O [2-Hydroxy-5-(2,5-dihydroxybenzylamino)benzoic acid]", "gametocyte viability": 109}
{"COMPOUND": "N#CCNC(=O)c1ccc(-c2ccnc(Nc3ccc(N4CCOCC4)cc3)n2)cc1", "gametocyte viability": 97.1}
{"COMPOUND": "CC(=O)Nc1cccc(-n2c(=O)n(C3CC3)c(=O)c3c(Nc4ccc(I)cc4F)n(C)c(=O)c(C)c32)c1", "gametocyte viability": 82.7}
{"COMPOUND": "NC1(Cc2ccc(Cl)cc2)CCN(c2ncnc3[nH]ccc23)CC1", "gametocyte viability": 78.9}

* * *

Test system: Plasmodium falciparum NF54/iGP1_RE9H ulg8 stage V gametocytes
Test: gametocyte viability (luciferase signal relative to DMSO control) (% of DMSO control); higher = less gametocytocidal activity, active = 50 or less
Conditions: concentration: 10 µM; exposure time: 72 h

{"SAMPLE SMILES": "CCCCN(Cc1ccc(C(=O)NO)cc1)C(=O)Nc1ccccc1", "gametocyte viability": 67.7}
{"SAMPLE SMILES": "COc1cc2c(NC3CCN(C)CC3)nc(N3CCCN(C)CC3)nc2cc1OCCCN(C)C", "gametocyte viability": 84}
{"SAMPLE SMILES": "O=C1/C(=C/c2ccc(O)c(Br)c2)CCC/C1=C\\c1ccc(O)c(Br)c1", "gametocyte viability": 83.2}
{"SAMPLE SMILES": "O=C1CCc2c(ccc3ccccc23)O1", "gametocyte viability": 80.9}
{"SAMPLE SMILES": "Cc1nn(C)cc1CN1CCC(c2ccc(C(=O)Nc3ccccc3N)cc2)CC1", "gametocyte viability": 90.2}

* * *

Tested on: Plasmodium falciparum NF54/iGP1_RE9H ulg8 stage V gametocytes
Assay: gametocyte viability (luciferase signal relative to DMSO control) (% of DMSO control); higher = less gametocytocidal activity, active = 50 or less
Conditions: concentration: 1 µM; exposure time: 72 h
Counter-ions that a name gives are not always drawn.
Decision: gametocyte viability beneath 100 gives label 1; gametocyte viability meeting or exceeding 100 gives label 0.

{"COMPOUND": "COc1cc2ncnc(Nc3cccc(Br)c3)c2cc1OC", "ASSIGNED LABEL": "label 1"}
{"COMPOUND": "C#Cc1cccc(Nc2ncnc3cc(OCCOC)c(OCCOC)cc23)c1 [Erlotinib HCl]", "ASSIGNED LABEL": "label 1"}
{"COMPOUND": "CC(=O)Nc1nc(C)c(-c2ccc(Cl)c(S(=O)(=O)NCCO)c2)s1", "ASSIGNED LABEL": "label 1"}
{"COMPOUND": "NCCNS(=O)(=O)c1cccc2cnccc12", "ASSIGNED LABEL": "label 0"}
{"COMPOUND": "N#CC1(c2ccc(NC(=O)c3cccnc3NCc3ccncc3)cc2)CCCC1 [Apatinib (YN968D1)]", "ASSIGNED LABEL": "label 1"}
{"COMPOUND": "Cc1c(CN2CCN(C(=O)[C@H](C)O)CC2)sc2c(N3CCOCC3)nc(-c3cnc(N)nc3)nc12", "ASSIGNED LABEL": "label 0"}
{"COMPOUND": "CNCCNS(=O)(=O)c1cccc2cnccc12", "ASSIGNED LABEL": "label 0"}
{"COMPOUND": "O=c1cc(N2CCOCC2)oc2c(-c3cccc4c3sc3ccccc34)cccc12", "ASSIGNED LABEL": "label 0"}
{"COMPOUND": "COC(=O)Nc1ccc(-c2nc(N3CCOCC3)c3cnn(C4CCN(Cc5cccnc5)CC4)c3n2)cc1", "ASSIGNED LABEL": "label 0"}
{"COMPOUND": "CN1CCN(CCOc2cc(OC3CCOCC3)c3c(Nc4c(Cl)ccc5c4OCO5)ncnc3c2)CC1 [Saracatinib (AZD0530)]", "ASSIGNED LABEL": "label 1"}
{"COMPOUND": "Cc1[nH]c(/C=C2\\C(=O)Nc3ccc(S(=O)(=O)N(C)c4cccc(Cl)c4)cc32)c(C)c1C(=O)N1CCN(C)CC1", "ASSIGNED LABEL": "label 0"}
{"COMPOUND": "CCCCCCCCCCCCC/C=C/[C@@H](O)[C@@H](N)CO [D-erythro-Sphingosine]", "ASSIGNED LABEL": "label 0"}
{"COMPOUND": "CNC(=O)c1cc(COc2nnc(Nc3ccc(Cl)cc3)c3ccoc23)ccn1 [Telatinib (BAY 57-9352)]", "ASSIGNED LABEL": "label 0"}
{"COMPOUND": "COc1cc2ncnc(Nc3cccc(Cl)c3)c2cc1OC", "ASSIGNED LABEL": "label 0"}

* * *

Tested on: Plasmodium falciparum NF54/iGP1_RE9H ulg8 stage V gametocytes
Experiment: gametocyte viability (luciferase signal relative to DMSO control) (% of DMSO control); higher = less gametocytocidal activity, active = 50 or less
Conditions: concentration: 10 µM; exposure time: 72 h
gametocyte viability values, listed per item

{"SAMPLE SMILES": "Cc1ncc(-c2ccnc(Nc3ccc(S(C)(=O)=O)cc3)n2)n1C(C)C", "gametocyte viability": 119}
{"SAMPLE SMILES": "O=C1NC(=O)/C(=C\\c2ccc3nccnc3c2)S1", "gametocyte viability": 101}
{"SAMPLE SMILES": "CO[C@H]1C[C@@H]2CC[C@@H](C)[C@@](O)(O2)C(=O)C(=O)N2CCCC[C@H]2C(=O)O[C@H]([C@H](C)C[C@@H]2CC[C@@H](OC(=O)C(C)(CO)CO)[C@H](OC)C2)CC(=O)[C@H](C)/C=C(\\C)[C@@H](O)[C@@H](OC)C(=O)[C@H](C)C[C@H](C)/C=C/C=C/C=C/1C", "gametocyte viability": 88.4}
{"SAMPLE SMILES": "O=c1cc(-c2cccc3c2Sc2ccccc2S3)oc(N2CCOCC2)c1", "gametocyte viability": 107}
{"SAMPLE SMILES": "COc1cc(Nc2ncc(F)c(Nc3ccc4c(n3)NC(=O)C(C)(C)O4)n2)cc(OC)c1OC", "gametocyte viability": 104}
{"SAMPLE SMILES": "Cc1ccc(F)c(NC(=O)Nc2ccc(-c3cccc4[nH]nc(N)c34)cc2)c1", "gametocyte viability": 89.4}
{"SAMPLE SMILES": "CN(C)C/C=C/C(=O)Nc1cc2c(Nc3ccc(F)c(Cl)c3)ncnc2cc1O[C@H]1CCOC1", "gametocyte viability": 93.5}
